- TARGET OF ASSAY: T1, Recombinant Human FGFR2 alpha (IIIc) Fc Chimera Protein, CF (R&D systems, 712-FR-050) (human, UniProt P21802 22-377)
- T1 construct: bought; not shown: Fc part of the chimera
- T1 sequence (P21802 22-377, change not shown): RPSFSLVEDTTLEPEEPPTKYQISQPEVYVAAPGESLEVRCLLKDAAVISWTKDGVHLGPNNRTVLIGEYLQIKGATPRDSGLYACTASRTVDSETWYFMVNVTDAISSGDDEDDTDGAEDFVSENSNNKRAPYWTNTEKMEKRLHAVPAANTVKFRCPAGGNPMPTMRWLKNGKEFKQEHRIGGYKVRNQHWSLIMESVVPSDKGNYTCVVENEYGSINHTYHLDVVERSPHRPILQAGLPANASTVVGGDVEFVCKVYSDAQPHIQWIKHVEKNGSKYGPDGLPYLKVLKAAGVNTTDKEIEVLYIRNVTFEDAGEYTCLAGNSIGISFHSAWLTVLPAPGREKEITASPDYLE
- PROTOCOL DESCRIPTION: ELISA on plate-bound FGFR2-Fc
Bridge positions count the residues as written; N and C are the ends. Ends that are not written are not given here. COCH2 = acetyl group that carries the bridge
QUANTITY: ELISA luminescence signal at 10 nmol/L peptide, relative to SEQ ID NO: 47 (=1)

| BINDER | RECORDED RESULT |
| --- | --- |
| YCEENYLDPDQYQYFIYFK(COCH2)Y (thioether 2-19 (inferred)) [cyclic peptide SEQ ID NO: 248] | ≥ 0.7 ratio |
| YCEENYLQPEQYQYFIYFK(COCH2)Y (thioether 2-19 (inferred)) [cyclic peptide SEQ ID NO: 215] | ≥ 0.7 ratio |
| YCEENYFDPEQYQYFIYFK(COCH2)Y (thioether 2-19 (inferred)) [cyclic peptide SEQ ID NO: 197] | ≥ 0.7 ratio |

Provenance of the data: patent US20260008815A1
